target: immobilized Aβ16 (Homo sapiens, UniProt P05067); construct: purchased Biopeptide (San Diego, CA, USA); host or cells: chemical synthesis; test: Direct binding assay: surface plasmon resonance, tetrapeptides over immobilized Aβ16-G4-C; conditions: Table S2; SPR, immobilized Aβ16, 25 °C, 10 mM HEPES pH 6.8, Ka = kon/koff, mean±SD of three independent measurements
Sequence (P05067 with tags, fused parts or gaps limits assumed): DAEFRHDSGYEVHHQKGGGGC
Where a SMILES comes first, the peptide text is derived from it.
endpoint name: Ka × 10^-2 M^-1

{"molecule": "CC(=O)N[C@@H](CCCNC(=N)N)C(=O)N[C@@H](C)C(=O)N[C@@H](CCC(=O)O)C(=O)N[C@@H](CCC(=O)O)C(N)=O [Ac-RAEE-NH2] (Ac-RAEE-NH2)", "measured on": "immobilized Aβ16 (Homo sapiens, UniProt P05067)", "Ka × 10^-2 M^-1": "1.3±0.1 × 10^-2 M^-1"}
{"molecule": "CC(=O)N[C@@H](CCCCN)C(=O)N[C@@H](C)C(=O)N[C@@H](CC(=O)O)C(=O)N[C@@H](CCC(=O)O)C(N)=O [#15, Ac-KADE-NH2] (Ac-KADE-NH2)", "measured on": "immobilized Aβ16 (Homo sapiens, UniProt P05067)", "Ka × 10^-2 M^-1": "2.2±0.1 × 10^-2 M^-1"}
{"molecule": "CC(=O)N[C@@H](CCC(=O)O)C(=O)N[C@@H](CC(=O)O)C(=O)N[C@@H](C)C(=O)N[C@@H](CCCNC(=N)N)C(N)=O [#18, Ac-EDAR-NH2] (Ac-EDAR-NH2)", "measured on": "immobilized Aβ16 (Homo sapiens, UniProt P05067)", "Ka × 10^-2 M^-1": "0.28±0.03 × 10^-2 M^-1"}
{"molecule": "CC(=O)N[C@@H](CC(=O)O)C(=O)N[C@@H](CCC(=O)O)C(=O)N[C@@H](C)C(=O)N[C@@H](CCCNC(=N)N)C(N)=O [#12, Ac-DEAR-NH2] (Ac-DEAR-NH2)", "measured on": "immobilized Aβ16 (Homo sapiens, UniProt P05067)", "Ka × 10^-2 M^-1": "5.1±0.2 × 10^-2 M^-1"}

q: Endpoint output: Ka × 10^-2 M^-1 of CC(=O)N[C@@H](CCCCN)C(=O)N[C@@H](C)C(=O)N[C@@H](CCC(=O)O)C(=O)N[C@@H](CC(=O)O)C(N)=O [#9, Ac-KAED-NH2] (Ac-KAED-NH2) . Value?
a: 3.1±0.6 × 10^-2 M^-1

====

biological target: immobilized Aβ16 (Homo sapiens); construct: purchased Biopeptide (San Diego, CA, USA); host or cells: chemical synthesis; experiment: Direct binding assay: surface plasmon resonance, tetrapeptides over immobilized Aβ16-G4-C; settings: Table S2; SPR, immobilized Aβ16, 25 °C, 10 mM HEPES pH 6.8, mean±SD of three independent measurements; read-out: koff × 10^-3 s^-1
Where a SMILES comes first, the peptide text is derived from it.
Use true (1) when the recorded koff is no lower than 0.007 s⁻¹; use false (0) when it is lower.

Record excerpt, results attached:
{"compound": "CC(=O)N[C@@H](CCCNC(=N)N)C(=O)N[C@@H](C)C(=O)N[C@@H](CCC(=O)O)C(=O)N[C@@H](CCC(=O)O)C(N)=O [Ac-RAEE-NH2] (Ac-RAEE-NH2)", "label class": "true (1)"}
{"compound": "CC(=O)N[C@@H](CC(=O)O)C(=O)N[C@@H](CC(=O)O)C(=O)N[C@@H](C)C(=O)N[C@@H](Cc1c[nH]cn1)C(N)=O [#2, Ac-DDAH-NH2] (Ac-DDAH-NH2)", "label class": "true (1)"}
{"compound": "CC(=O)N[C@@H](CCC(=O)O)C(=O)N[C@@H](CC(=O)O)C(=O)N[C@@H](C)C(=O)N[C@@H](CCCCN)C(N)=O [#16, Ac-EDAK-NH2] (Ac-EDAK-NH2)", "label class": "true (1)"}
{"compound": "CC(=O)N[C@@H](CCC(=O)O)C(=O)N[C@@H](CC(=O)O)C(=O)N[C@@H](C)C(=O)N[C@@H](CCCNC(=N)N)C(N)=O [#18, Ac-EDAR-NH2] (Ac-EDAR-NH2)", "label class": "false (0)"}

q: Reported koff reaches at least 0.007 s⁻¹ for CC(=O)N[C@@H](CC(=O)O)C(=O)N[C@@H](CC(=O)O)C(=O)N[C@@H](C)C(=O)N[C@@H](CCCCN)C(N)=O [#4, Ac-DDAK-NH2] (Ac-DDAK-NH2) ?
a: false (0)

q: Reported koff reaches at least 0.007 s⁻¹ for CC(=O)N[C@@H](CCCNC(=N)N)C(=O)N[C@@H](C)C(=O)N[C@@H](CC(=O)O)C(=O)N[C@@H](CC(=O)O)C(N)=O [Ac-RADD-NH2] (Ac-RADD-NH2) ?
a: false (0)

q: Reported koff reaches at least 0.007 s⁻¹ for CC(=O)N[C@@H](CCCCN)C(=O)N[C@@H](C)C(=O)N[C@@H](CCC(=O)O)C(=O)N[C@@H](CC(=O)O)C(N)=O [#9, Ac-KAED-NH2] (Ac-KAED-NH2) ?
a: true (1)

q: Reported koff reaches at least 0.007 s⁻¹ for CC(=O)N[C@@H](Cc1c[nH]cn1)C(=O)N[C@@H](C)C(=O)N[C@@H](CCC(=O)O)C(=O)N[C@@H](CCC(=O)O)C(N)=O [Ac-HAEE-NH2] (Ac-HAEE-NH2) ?
a: false (0)

q: Reported koff reaches at least 0.007 s⁻¹ for CC(=O)N[C@@H](CCCCN)C(=O)N[C@@H](C)C(=O)N[C@@H](CC(=O)O)C(=O)N[C@@H](CCC(=O)O)C(N)=O [#15, Ac-KADE-NH2] (Ac-KADE-NH2) ?
a: true (1)

q: Reported koff reaches at least 0.007 s⁻¹ for CC(=O)N[C@@H](Cc1c[nH]cn1)C(=O)N[C@@H](C)C(=O)N[C@@H](CC(=O)O)C(=O)N[C@@H](CC(=O)O)C(N)=O [#1, Ac-HADD-NH2] (Ac-HADD-NH2) ?
a: true (1)
